Some compounds, each annotated with its measured pIC50.
tested on: 926638-142-R-J1-PDC complex spheroid viability; experiment: Anticancer human tumor 926638-142-R-J1-PDC patient-derived endometrial carcinoma cell line growth inhibition [POLQ]; conditions: curve of first compound; second compound 1 µM;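 note: spheroids exposed to drugs for one week before readout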
pIC50: −log10 of the molar value.
metric: pIC50

compound="CCc1cc2c(N3CCc4c(cc(Cn5ccnc5)cc4-c4cn(C)nc4C(F)(F)F)C3=O)cc(C)nc2c(OC)n1 + Nc1ccc(C#CCN(C(=O)Cc2ncc(C(F)(F)F)cc2C(F)(F)F)c2ccc(F)cc2)nn1" sign== value_measured=6.32
compound="CNCc1ccc(-c2[nH]c3cc(F)cc4c3c2CCNC4=O)cc1 + Cc1cccc(N(C)C(=O)C2C(O)CCN2c2nc(C)cc(C(F)(F)F)c2C#N)c1" sign=< value_measured=5.00
compound="CC1COCCN1c1cc(C2(O)CC3CCC(C2)O3)c2cnn(-c3ccn[nH]3)c2n1 (stereo unspecified) + COC1C(OC(N)=O)C(O)C(Oc2ccc3c(O)c(NC(=O)c4ccc(O)c(CC=C(C)C)c4)c(=O)oc3c2C)OC1(C)C" sign== value_measured=6.66
compound="COc1cc2cc(C(=O)CCC(=O)O)sc2cc1OC + COC1C(OC(N)=O)C(O)C(Oc2ccc3c(O)c(NC(=O)c4ccc(O)c(CC=C(C)C)c4)c(=O)oc3c2C)OC1(C)C" sign=< value_measured=5.00
compound="Cn1ncnc1[C@H]1c2n[nH]c(=O)c3cc(F)cc(c23)N[C@@H]1c1ccc(F)cc1 + Cc1cccc(N(C)C(=O)C2C(O)CCN2c2nc(C)cc(C(F)(F)F)c2C#N)c1" sign=< value_measured=7.00
compound="COc1cccc(OCCCN)c1-c1cc(Nc2cnc(C#N)cn2)n[nH]1 + Cc1cccc(N(C)C(=O)C2C(O)CCN2c2nc(C)cc(C(F)(F)F)c2C#N)c1" sign== value_measured=7.30
compound="Nc1ccn(C2OC(CO)C(O)C2(F)F)c(=O)n1 (stereo unspecified) + Cc1cccc(N(C)C(=O)C2C(O)CCN2c2nc(C)cc(C(F)(F)F)c2C#N)c1" sign== value_measured=6.20
compound="Nc1ccn(C2OC(CO)C(O)C2(F)F)c(=O)n1 (stereo unspecified) + Nc1ccc(C#CCN(C(=O)Cc2ncc(C(F)(F)F)cc2C(F)(F)F)c2ccc(F)cc2)nn1" sign== value_measured=6.15
compound="O=c1[nH]cc(F)c(=O)[nH]1 + Nc1ccc(C#CCN(C(=O)Cc2ncc(C(F)(F)F)cc2C(F)(F)F)c2ccc(F)cc2)nn1" sign=< value_measured=5.00
compound="COc1cc2cc(C(=O)CCC(=O)O)sc2cc1OC + Nc1ccc(C#CCN(C(=O)Cc2ncc(C(F)(F)F)cc2C(F)(F)F)c2ccc(F)cc2)nn1" sign=< value_measured=5.00
compound="CCc1cc2c(N3CCc4c(cc(Cn5ccnc5)cc4-c4cn(C)nc4C(F)(F)F)C3=O)cc(C)nc2c(OC)n1 + COC1C(OC(N)=O)C(O)C(Oc2ccc3c(O)c(NC(=O)c4ccc(O)c(CC=C(C)C)c4)c(=O)oc3c2C)OC1(C)C" sign== value_measured=6.67
compound="CC[C@@]1(O)C(=O)OCc2c1cc1n(c2=O)Cc2cc3c(CN(C)C)c(O)ccc3nc2-1 + COC1C(OC(N)=O)C(O)C(Oc2ccc3c(O)c(NC(=O)c4ccc(O)c(CC=C(C)C)c4)c(=O)oc3c2C)OC1(C)C" sign== value_measured=7.18
compound="C=CCn1c(=O)c2cnc(Nc3ccc(N4CCN(C)CC4)cc3)nc2n1-c1cccc(C(C)(C)O)n1 + Nc1ccc(C#CCN(C(=O)Cc2ncc(C(F)(F)F)cc2C(F)(F)F)c2ccc(F)cc2)nn1" sign== value_measured=6.34
compound="CCCS(=O)(=O)Nc1ccc(F)c(C(=O)c2c[nH]c3ncc(-c4ccc(Cl)cc4)cc23)c1F + COC1C(OC(N)=O)C(O)C(Oc2ccc3c(O)c(NC(=O)c4ccc(O)c(CC=C(C)C)c4)c(=O)oc3c2C)OC1(C)C" sign=< value_measured=5.00
compound="Nc1ccn(C2OC(CO)C(O)C2(F)F)c(=O)n1 (stereo unspecified) + COC1C(OC(N)=O)C(O)C(Oc2ccc3c(O)c(NC(=O)c4ccc(O)c(CC=C(C)C)c4)c(=O)oc3c2C)OC1(C)C" sign== value_measured=6.03
compound="COc1ccc([C@@H](O)c2cc(-c3ncnc4cc(N5CCOCC5)ccc34)c(F)cc2Cl)nn1 + COC1C(OC(N)=O)C(O)C(Oc2ccc3c(O)c(NC(=O)c4ccc(O)c(CC=C(C)C)c4)c(=O)oc3c2C)OC1(C)C" sign== value_measured=6.35
compound="COc1cccc2c1C(=O)c1c(O)c3c(c(O)c1C2=O)CC(O)(C(=O)CO)CC3OC1CC(N)C(O)C(C)O1 (stereo unspecified) + COC1C(OC(N)=O)C(O)C(Oc2ccc3c(O)c(NC(=O)c4ccc(O)c(CC=C(C)C)c4)c(=O)oc3c2C)OC1(C)C" sign== value_measured=6.89
compound="CC[C@@]1(O)C(=O)OCc2c1cc1n(c2=O)Cc2cc3c(CN(C)C)c(O)ccc3nc2-1 + Cc1cccc(N(C)C(=O)C2C(O)CCN2c2nc(C)cc(C(F)(F)F)c2C#N)c1" sign=< value_measured=7.00
compound="CNCc1ccc(-c2[nH]c3cc(F)cc4c3c2CCNC4=O)cc1 + COC1C(OC(N)=O)C(O)C(Oc2ccc3c(O)c(NC(=O)c4ccc(O)c(CC=C(C)C)c4)c(=O)oc3c2C)OC1(C)C" sign=< value_measured=5.00
compound="CC[C@@]1(O)C(=O)OCc2c1cc1n(c2=O)Cc2cc3c(CN(C)C)c(O)ccc3nc2-1 + Nc1ccc(C#CCN(C(=O)Cc2ncc(C(F)(F)F)cc2C(F)(F)F)c2ccc(F)cc2)nn1" sign== value_measured=7.01
compound="CC1COCCN1c1cc(-c2ccnn2C)c2ccnc(-c3ccn[nH]3)c2n1 (stereo unspecified) + Cc1cccc(N(C)C(=O)C2C(O)CCN2c2nc(C)cc(C(F)(F)F)c2C#N)c1" sign== value_measured=6.38
